# Tested on: 889142-216-R-J1-PDC complex spheroid viability;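 also: spheroids exposed to compounds for seven days; 100% = DMSO vehicle control viability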
# ASSAY PROCEDURE: Anticancer human tumor 889142-216-R-J1-PDC patient-derived bladder carcinoma cell line growth inhibition [POLQ]
# CONDITION LABEL: second compound 0.1 µM; first compound 0.0316 µM; active compounds read low

# COMPOUND, TARGET SYSTEM, viability, T/C (%)
rows = [
    ("Cn1ncnc1[C@H]1c2n[nH]c(=O)c3cc(F)cc(c23)N[C@@H]1c1ccc(F)cc1 + Nc1ccc(C#CCN(C(=O)Cc2ncc(C(F)(F)F)cc2C(F)(F)F)c2ccc(F)cc2)nn1", "889142-216-R-J1-PDC complex spheroid viability", 105),
    ("C=CC(=O)N1CCN(c2nc(=O)n(-c3c(C)ccnc3C(C)C)c3nc(-c4c(O)cccc4F)c(F)cc23)C(C)C1 (stereo not given) + COC1C(OC(N)=O)C(O)C(Oc2ccc3c(O)c(NC(=O)c4ccc(O)c(CC=C(C)C)c4)c(=O)oc3c2C)OC1(C)C", "889142-216-R-J1-PDC complex spheroid viability", 113),
    ("CNCc1ccc(-c2[nH]c3cc(F)cc4c3c2CCNC4=O)cc1 + Cc1cccc(N(C)C(=O)C2C(O)CCN2c2nc(C)cc(C(F)(F)F)c2C#N)c1", "889142-216-R-J1-PDC complex spheroid viability", 91.9),
    ("CC(C)n1c(=O)n(C)c2cnc3cc(F)c(-c4ccc(OCCCN5CCCCC5)nc4)cc3c21 + COC1C(OC(N)=O)C(O)C(Oc2ccc3c(O)c(NC(=O)c4ccc(O)c(CC=C(C)C)c4)c(=O)oc3c2C)OC1(C)C", "889142-216-R-J1-PDC complex spheroid viability", 88.6),
    ("COc1cccc(OCCCN)c1-c1cc(Nc2cnc(C#N)cn2)n[nH]1 + Cc1cccc(N(C)C(=O)C2C(O)CCN2c2nc(C)cc(C(F)(F)F)c2C#N)c1", "889142-216-R-J1-PDC complex spheroid viability", 59.3),
    ("CCc1cc2c(N3CCc4c(cc(Cn5ccnc5)cc4-c4cn(C)nc4C(F)(F)F)C3=O)ccnc2c(OC)n1 + Cc1cccc(N(C)C(=O)C2C(O)CCN2c2nc(C)cc(C(F)(F)F)c2C#N)c1", "889142-216-R-J1-PDC complex spheroid viability", 95.2),
    ("COc1cc(C2c3cc4c(cc3C(OC3OC5COC(C)OC5C(O)C3O)C3COC(=O)C23)OCO4)cc(OC)c1O (stereo not given) + COC1C(OC(N)=O)C(O)C(Oc2ccc3c(O)c(NC(=O)c4ccc(O)c(CC=C(C)C)c4)c(=O)oc3c2C)OC1(C)C", "889142-216-R-J1-PDC complex spheroid viability", 87.1),
    ("CC[C@@]1(O)C(=O)OCc2c1cc1n(c2=O)Cc2cc3c(CN(C)C)c(O)ccc3nc2-1 + Cc1cccc(N(C)C(=O)C2C(O)CCN2c2nc(C)cc(C(F)(F)F)c2C#N)c1", "889142-216-R-J1-PDC complex spheroid viability", 73),
    ("CC[C@@]1(O)C(=O)OCc2c1cc1n(c2=O)Cc2cc3c(CN(C)C)c(O)ccc3nc2-1 + Nc1ccc(C#CCN(C(=O)Cc2ncc(C(F)(F)F)cc2C(F)(F)F)c2ccc(F)cc2)nn1", "889142-216-R-J1-PDC complex spheroid viability", 59.7),
    ("Nc1ccn(C2OC(CO)C(O)C2(F)F)c(=O)n1 (stereo not given) + COC1C(OC(N)=O)C(O)C(Oc2ccc3c(O)c(NC(=O)c4ccc(O)c(CC=C(C)C)c4)c(=O)oc3c2C)OC1(C)C", "889142-216-R-J1-PDC complex spheroid viability", 78.2),
]
